Target Under Test: Man(a1-2)Man(a1-3)[Man(a1-2)Man(a1-6)]Man
Assay Notes: glycan array binding signal (z-score within array); higher = stronger binding
Experimental Setup: glycan notation: IUPAC condensed, linker removed
Many of the other results were omitted from the sample, so the strongest signals are more common in it than they were.
Assay Endpoint: glycan array binding signal (z-score)

| Binder | glycan array binding signal (z-score) |
| --- | --- |
| Epa8 (Candida glabrata) (protein) MGSSHHHHHHSSGLVPRGSHMASSRALSDYPLGCSPLLGTKLTPGLSMELYEYPLDNHGIGPHCWDPAYLNPEYPRTGFESHKLIGTAQNVMSLNFEHRTQDCHVEFSNLPASFNFPDQITLTNFTMLLYGYFKPKESGRYRFHMEADDLLLMNLGAGNAFDCCAHEATRNNLGDYIAYDIWAGTRKDVEVFLEKEVFYPLRLFFNNRDGRAALDFSYYLNGATEPGTDIPELLFSLPDGESCPAYI | -0.246 |
| BC2L-A (Burkholderia cenocepacia), Q1BKJ8_BURCA (protein) ADSQTSSNRAGEFSIPPNTDFRAIFFANAAEQQHIKLFIGDSQEPAAYHKLTTRDGPREATLNSGNGKIRFEVSVNGKPSATDARLAPINGKKSDGSPFTVNFGIVVSEDGHDSDYNDGIVVLQWPIG | 2.25 |

Now consider the entry below.
Quick one: glycan array binding signal (z-score) of Pwp2 (Candida glabrata) (protein) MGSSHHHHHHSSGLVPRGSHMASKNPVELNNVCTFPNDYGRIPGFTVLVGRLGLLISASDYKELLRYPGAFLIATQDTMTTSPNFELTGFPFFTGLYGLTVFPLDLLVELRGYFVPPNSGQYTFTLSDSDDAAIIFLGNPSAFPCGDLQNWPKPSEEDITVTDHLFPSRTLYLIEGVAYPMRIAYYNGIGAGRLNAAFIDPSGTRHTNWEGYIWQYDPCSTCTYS ?
-0.477
